MEASURED_ON: short form of the GPR120 receptor (Homo sapiens)
EXPERIMENT_NOTES: Human GPR120 DiscoveRx PathHunter Beta-Arrestin assay, Procedure β-arrestin B
Description: Human GPR120 DiscoveRx PathHunter® Beta-Arrestin Assay Assay Principle: […] The plates were read on an EnVision instrument, using Protocol name: Luminescence, Plate type: 384 Costar, Measurement height: 3 mm, Measurement time: 1 s, Aperture: 384 Plate aperture. The % Activity relative to the positive control was calculated using the following equation: […]
PARAMETER_MEASURED: pEC50
Please keep in mind that pEC50 is minus log10 of the molar concentration; only the number is needed.

In: Record request: pEC50 value, item O=C(O)CCc1ccc(OCC2=C(c3ccc(Cl)cc3)CCC2)c(F)c1 [Compound 149]
Out: 7.05

In: Record request: pEC50 value, item Cc1ccc(C2=C(COc3ccc(CCC(=O)O)c(F)c3F)CCC2)cc1F [Compound 78]
Out: 7.12

In: Record request: pEC50 value, item Cc1c(CCC(=O)O)ccc(OCC2=C(c3cccs3)CCCC2)c1C [Compound 482]
Out: 6.90

* * *

MEASURED_ON: Human GPR120 short form (Homo sapiens, UniProt Q5NUL3)
Construct: expressed in transfected cells
Sequence (Q5NUL3 1-361): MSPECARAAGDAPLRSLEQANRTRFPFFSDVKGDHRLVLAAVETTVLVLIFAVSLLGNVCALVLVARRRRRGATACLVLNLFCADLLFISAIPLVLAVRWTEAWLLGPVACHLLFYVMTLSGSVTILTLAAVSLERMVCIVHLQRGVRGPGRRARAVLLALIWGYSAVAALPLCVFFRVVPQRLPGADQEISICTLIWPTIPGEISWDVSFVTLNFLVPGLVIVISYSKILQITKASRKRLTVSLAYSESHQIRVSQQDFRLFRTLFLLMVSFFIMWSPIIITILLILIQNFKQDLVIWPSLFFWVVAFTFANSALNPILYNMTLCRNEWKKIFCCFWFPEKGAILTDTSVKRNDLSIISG
EXPERIMENT_NOTES: Human GPR120 calcium flux assay, Procedure Calcium B (4200 cells/well)
Format: cell-based
PARAMETER_MEASURED: pEC50
Please keep in mind that pEC50 is minus log10 of the molar concentration; only the number is needed.

Example entries begin here.
- COMPOUND: "CCCCC1=C(COc2ccc(CCC(=O)O)c(Cl)c2)CCCC1"
  PARAMETER_MEASURED: "pEC50"
  MEASURED_RESULT: 6.12
- COMPOUND: "COc1ccc(C2=C(COc3ccc(CCC(=O)O)cc3C)CCC2)cn1"
  PARAMETER_MEASURED: "pEC50"
  MEASURED_RESULT: 7.05
- COMPOUND: "COC1CCC(c2ccc(Cl)cc2)=C(COc2ccc(CCC(=O)O)c(C)c2C)C1 (stereo not drawn)"
  PARAMETER_MEASURED: "pEC50"
  MEASURED_RESULT: 6.82
- COMPOUND: "Cc1ccc(C2=C(COc3ccc(CCC(=O)O)c(F)c3F)CCC2)cc1C"
  PARAMETER_MEASURED: "pEC50"
  MEASURED_RESULT: 6.84
- COMPOUND: "CC(C)CC1=C(COc2ccc(CCC(=O)O)cc2)CCCC1"
  PARAMETER_MEASURED: "pEC50"
  MEASURED_RESULT: 5.75
- COMPOUND: "O=C(O)CCc1ccc(OCC2=C(c3ccc(Br)cc3)CCC2)cc1Cl"
  PARAMETER_MEASURED: "pEC50"
  MEASURED_RESULT: 6.37
- COMPOUND: "O=C(O)CCc1ccc(OCC2=C(C3CCCC3)CCC(F)(F)C2)cc1C(F)(F)F"
  PARAMETER_MEASURED: "pEC50"
  MEASURED_RESULT: 6.78
- COMPOUND: "O=C(O)CCc1ccc(OCC2=C(c3cc(Cl)ccc3F)CCC2)cc1C(F)(F)F"
  PARAMETER_MEASURED: "pEC50"
  MEASURED_RESULT: 6.28

In: Record request: pEC50 value, item Cc1c(CCC(=O)O)ccc(OCC2=C(c3ccc(Cl)cc3)CCC2(O)C(F)(F)F)c1C (stereo not drawn)
Out: 5.61

In: Record request: pEC50 value, item O=C(O)CCc1ccc(OCC2=C(c3ccc(Cl)cc3)CCCC2)c(F)c1
Out: 7.46

* * *

MEASURED_ON: Human GPR120 short form (Homo sapiens)
Construct: expressed in transfected cells
EXPERIMENT_NOTES: Human GPR120 calcium flux assay, Procedure Calcium A (2500 cells/well)
Type: cell-based
PARAMETER_MEASURED: pEC50
Please keep in mind that pEC50 is minus log10 of the molar concentration; only the number is needed.

Example entries begin here.
- SMILES_INPUT: "Cc1ccc(C2=C(COc3ccc(CCC(=O)O)c(C)c3C)CCCC2)cn1"
  MEASURED_RESULT: 5.89
- SMILES_INPUT: "Cc1ccc(C2=C(COc3ccc(CCC(=O)O)c(F)c3F)CCC2)cc1[N+](=O)[O-]"
  MEASURED_RESULT: 5.90
- SMILES_INPUT: "Cc1c(CCC(=O)O)ccc(OCC2=C(c3ccc(C(F)(F)F)cc3)CCCC2)c1C"
  MEASURED_RESULT: 6.00
- SMILES_INPUT: "Cc1c(CCC(=O)O)ccc(OCC2=C(c3cccc(Cl)c3)CCCC2)c1C"
  MEASURED_RESULT: 6.02

In: Quick check: pEC50 on Human GPR120 short form (Homo sapiens), item Cc1c(CCC(=O)O)ccc(OCC2=C(c3ccc(C(C)C)cc3)CCC2)c1C ?
Out: 6.10

In: Quick check: pEC50 on Human GPR120 short form (Homo sapiens), item Cc1ccc(C2=C(COc3c(F)cc(CCC(=O)O)cc3F)CCC2)cc1[N+](=O)[O-] ?
Out: 6.02

In: Quick check: pEC50 on Human GPR120 short form (Homo sapiens), item Cc1c(CCC(=O)O)ccc(OCC2=C(c3cccnc3)CCC2)c1C ?
Out: 5.98

In: Quick check: pEC50 on Human GPR120 short form (Homo sapiens), item Cc1ccc(C2=C(COc3ccc(CCC(=O)O)c(F)c3F)CCC2)c(C)c1 ?
Out: 6.18

* * *

Form field: pEC50 (one value per entry).
MEASURED_ON: human GPR40 (Homo sapiens, UniProt O14842)
Sequence (O14842 whole entry): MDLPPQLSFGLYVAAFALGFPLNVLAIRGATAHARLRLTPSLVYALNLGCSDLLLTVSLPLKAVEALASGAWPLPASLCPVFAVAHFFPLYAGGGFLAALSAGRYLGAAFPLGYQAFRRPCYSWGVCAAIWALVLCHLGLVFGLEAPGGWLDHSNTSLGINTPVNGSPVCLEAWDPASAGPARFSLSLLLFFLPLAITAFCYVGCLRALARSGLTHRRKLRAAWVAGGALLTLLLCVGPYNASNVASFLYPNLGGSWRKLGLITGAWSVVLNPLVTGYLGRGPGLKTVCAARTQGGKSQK
EXPERIMENT_NOTES: GPR40 calcium flux assay, human GPR40
EXPERIMENTAL_CONTEXT: HEK293 cells stably expressing GPR40; table does not say human or rat
pEC50: −log10 of the molar value.

Example entries begin here.
- SMILES_INPUT: "O=C(O)CCc1c(F)c(F)c(OCC2=C(c3ccc(Cl)cc3)CCCC2)c(F)c1F"
  pEC50: "< 5.30"
- SMILES_INPUT: "Cc1ccc(C2=C(COc3c(F)cc(CCC(=O)O)cc3F)CCC2)cc1"
  pEC50: "< 5.30"

Next, consider the following compound.
In: Quick check: pEC50 on human GPR40 (Homo sapiens, UniProt O14842), item Cc1cc(CCC(=O)O)ccc1OCC1=C(C2=CCOCC2)CCC1 ?
Out: < 5.30

* * *

MEASURED_ON: Human GPR120 short form (Homo sapiens, UniProt Q5NUL3)
Construct: expressed in transfected cells
EXPERIMENT_NOTES: Human GPR120 calcium flux assay, Procedure Calcium B (4200 cells/well)
Format: cell-based
pEC50: −log10 of the molar value.
PARAMETER_MEASURED: pEC50

Example entries begin here.
- COMPOUND: "O=C(O)CCc1ccc(OCC2=C(C3CCC(F)(F)CC3)CCC2)cc1C(F)(F)F [Compound 416]"
  pEC50: "< 5.30"
- COMPOUND: "Cc1cc(CCC(=O)O)ccc1OCC1=C(c2ccco2)CC(F)(F)C1 [Compound 232]"
  pEC50: "< 5.30"
- COMPOUND: "COC1CCC(c2ccccc2C)=C(COc2ccc(CCC(=O)O)cc2)C1 (stereo not shown) [Compound 575]"
  pEC50: "< 5.30"

Next, consider the following compound.
In: Quick check: pEC50 on Human GPR120 short form (Homo sapiens, UniProt Q5NUL3), item O=C(O)CCc1ccc(OCC2=C(c3ccc(OC(F)(F)F)cc3)CCC2)cc1C(F)(F)F [Compound 308] ?
Out: < 5.30

* * *

MEASURED_ON: human GPR40 (Homo sapiens, UniProt O14842)
EXPERIMENT_NOTES: GPR40 calcium flux assay, human GPR40
EXPERIMENTAL_CONTEXT: HEK293 cells stably expressing GPR40; table does not say human or rat
Form field: EC50 (one value per entry).
Give a bare numeral; the unit nM is implied.

Example entries begin here.
- COMPOUND: "O=C(O)CCc1ccc(OCC2=C(c3ccc(Cl)cc3)CC(F)(F)C2)cc1C(F)(F)F [Compound 248]"
  MEASURED_RESULT: 188
- COMPOUND: "Cc1ccc(C2=C(COc3ccc(CCC(=O)O)c(C(F)(F)F)c3)CCC2)c(-c2ccccc2)c1 [Compound 291]"
  MEASURED_RESULT: 1420
- COMPOUND: "O=C(O)CCc1ccc(OCC2=C(c3ccc(Cl)cc3)CCC2)cc1Cl [Compound 143]"
  MEASURED_RESULT: 365
- COMPOUND: "Cc1ccc(C2=C(COc3ccc(CCC(=O)O)c(Cl)c3)CCC2)c(F)c1 [Compound 273]"
  MEASURED_RESULT: 1040

Next, consider the following compound.
In: Quick check: EC50 on human GPR40 (Homo sapiens, UniProt O14842), item COc1ccc(C2=C(COc3cc(C)c(CCC(=O)O)cc3F)CCC2)c(C)c1 [Compound 278] ?
Out: 302

Numbers sourced from patent US11230526B1.
